- assay: yeast display, Sf9 membrane polyspecificity reagent, FACS + sequencing; frameworks hold sequencing errors

primary_sequence	polyreactivity (PSR sort gate)
QVQLVESGGGLVQAGGSLRLSCAASGRTFVDYDMGWYRQAPGKERELVADINSGGSTYYADSVKGRFTISRDNAKNTVYLQMNSQKPEDTAVYDCAVRSRGTAPQYYYWGQGTQVTVSS	high polyreactivity
QVQLLESGGGLVQAGGSLRLSCAASGITFSQYAMGWYRQAPGKERELVAAISWSGGSTYYANSVKGRFTISRDNAKNTVYLQMNSLKPEDTAVYYCAAVPVHTGSLYWGFTTGYDYWGQGTQVTVSS	low polyreactivity
QVQLVESGGGLVQAGGSLRLRCAASGTTFSDNAMGWYRQAAGKERELVAAITSGGSTYYADSVKGRFTISRDNAKNTVYLQMNSLKPEDTAVYYCAADYWGQGTQVTVSS	low polyreactivity
QVQLVESGGGLVQAGGSLRLSCAASGRIFSRNTMGWYRQAPGKEREIVAAISQSGGRTYYADSVKGRFTISRDNAKNPVYLQMNSLNPEDTEVYYCNAQFARSSGFNYWGQGTQVTVSS	high polyreactivity
QVQLVESGGGLVQAGGTLRLSCAASGRTFPSNAMGWYRQAPGKEREFVASITYSGGRTYYADSVKGRFTISRDNAKNTVYLQMNSLKPEDTAVFYCATARYRYHYYSWGQGTQVTVSS	high polyreactivity
